Assign relative cell viability to each entry below.
Tested on: replication-induced senescent mouse newborn dermal fibroblasts (NBF)
measurement.description: relative cell viability of senescent cells (fraction); higher = less killing of senescent cells
experimental.parameters: 1 µM; 3 days
Structures can show the parent of a compound that is named as a salt.
Give bare numbers.

# count of solved cases: 7
{"molecule": "C[C@H](NCc1ccc(OCc2cccc(F)c2)cc1)C(N)=O [Safinamide Mesylate]", "relative cell viability": 0.955}
{"molecule": "CCC[S+]([O-])c1ccc2[nH]c(NC(=O)OC)nc2c1 (stereo not drawn) [Albendazole Oxide]", "relative cell viability": 0.993}
{"molecule": "COc1ccccc1OCC(O)CN1CCN(CC(=O)Nc2c(C)cccc2C)CC1 (stereo not drawn)", "relative cell viability": 0.994}
{"molecule": "COc1cc2ncnc(Nc3ccc(F)c(Cl)c3)c2cc1OCCCN1CCOCC1 [Gefitinib (ZD1839)]", "relative cell viability": 1.01}
{"molecule": "NS(=O)(=O)c1cc2c(cc1Cl)NCNS2(=O)=O [Hydrochlorothiazide]", "relative cell viability": 1.07}
{"molecule": "Clc1ccc(C(Cn2ccnc2)OCc2c(Cl)cccc2Cl)c(Cl)c1 (stereo not drawn) [Isoconazole nitrate]", "relative cell viability": 0.937}
{"molecule": "Cc1cc(Nc2cc(N3CCN(C)CC3)nc(Sc3ccc(NC(=O)C4CC4)cc3)n2)n[nH]1", "relative cell viability": 0.364}

Please report relative cell viability for the following molecule: CCCCc1nc2cc(/C=C/C(=O)NO)ccc2n1CCN(CC)CC [Pracinostat (SB939)]
1.01

###

System: replication-induced senescent mouse newborn dermal fibroblasts (NBF)
measurement.description: relative cell viability of senescent cells (fraction); higher = less killing of senescent cells
experimental.parameters: 1 µM; 3 days
property.name: relative cell viability
Answers are plain numbers.

{"compound": "CCOC(=O)C1=C(C)NC(C)=C(C(=O)OC)C1c1cccc(Cl)c1Cl (centres undefined)", "property.name": "relative cell viability", "observed.value": 1}
{"compound": "Oc1ccc(OCc2ccccc2)cc1", "property.name": "relative cell viability", "observed.value": 0.981}
{"compound": "CCOc1nc2cccc(C(=O)O)c2n1Cc1ccc(-c2ccccc2-c2nnn[nH]2)cc1", "property.name": "relative cell viability", "observed.value": 1.02}

Please report relative cell viability for the following compound: Cc1ccnc2c1NC(=O)c1cccnc1N2C1CC1
1.02

###

Test system: replication-induced senescent mouse newborn dermal fibroblasts (NBF)
measurement.description: relative cell viability of senescent cells (fraction); higher = less killing of senescent cells
experimental.parameters: 1 µM; 3 days
Structures can show the parent of a compound that is named as a salt.
For each record, check the reported relative cell viability: if it is below 1 write t, else write f.

{"compound": "CNC(=O)c1cc(Oc2ccc(NC(=O)Nc3ccc(Cl)c(C(F)(F)F)c3)cc2)ccn1 [Sorafenib Tosylate]", "classification": "t"}

For CN(C)CCc1c[nH]c2ccc(Cn3cncn3)cc12 [Rizatriptan Benzoate] , is the recorded relative cell viability below the cut-off of 1?
f

For COc1ccc2[nH]c([S@@+]([O-])Cc3ncc(C)c(OC)c3C)nc2c1 [NEXIUM (esomeprazole magnesium)] , is the recorded relative cell viability below the cut-off of 1?
f

###

Tested on: replication-induced senescent mouse newborn dermal fibroblasts (NBF)
measurement.description: relative cell viability of senescent cells (fraction); higher = less killing of senescent cells
experimental.parameters: 1 µM; 3 days
Structures can show the parent of a compound that is named as a salt.
property.name: relative cell viability

{"compound": "Cc1cn([C@H]2C=C[C@@H](CO)O2)c(=O)[nH]c1=O", "relative cell viability": 0.893}
{"compound": "CN(CCOc1ccc(NS(C)(=O)=O)cc1)CCc1ccc(NS(C)(=O)=O)cc1 [Dofetilide]", "relative cell viability": 1.02}
{"compound": "OCCOCCN1CCN(C2=Nc3ccccc3Sc3ccccc32)CC1 [Quetiapine Fumarate]", "relative cell viability": 1.13}
{"compound": "CC(C(=O)O)c1cccc(Oc2ccccc2)c1 (stereo unspecified)", "relative cell viability": 1.13}
{"compound": "CCCCC(=O)O[C@]1(C(=O)CO)[C@@H](C)C[C@H]2[C@@H]3CCC4=CC(=O)C=C[C@]4(C)[C@@]3(F)[C@@H](O)C[C@@]21C [Betamethasone Valerate]", "relative cell viability": 1.15}

Could you now consider this next compound?
Provide the reported relative cell viability (system: replication-induced senescent mouse newborn dermal fibroblasts (NBF)) for CC(C)[C@H](O)C(=O)N[C@@H](C)C(=O)N[C@@H]1C(=O)N(C)CCc2ccccc21
0.981
